These data points were gathered from the kinase profiling compilation of Christmann-Franck et al. (2016).

target: IRAK1 (human) (UniProt P51617); experiment: radiometric filter-binding kinase assay, Kinase HotSpot; settings: compound 0.5 µM; ATP 10 µM
Sequence (P51617 whole entry, looked up): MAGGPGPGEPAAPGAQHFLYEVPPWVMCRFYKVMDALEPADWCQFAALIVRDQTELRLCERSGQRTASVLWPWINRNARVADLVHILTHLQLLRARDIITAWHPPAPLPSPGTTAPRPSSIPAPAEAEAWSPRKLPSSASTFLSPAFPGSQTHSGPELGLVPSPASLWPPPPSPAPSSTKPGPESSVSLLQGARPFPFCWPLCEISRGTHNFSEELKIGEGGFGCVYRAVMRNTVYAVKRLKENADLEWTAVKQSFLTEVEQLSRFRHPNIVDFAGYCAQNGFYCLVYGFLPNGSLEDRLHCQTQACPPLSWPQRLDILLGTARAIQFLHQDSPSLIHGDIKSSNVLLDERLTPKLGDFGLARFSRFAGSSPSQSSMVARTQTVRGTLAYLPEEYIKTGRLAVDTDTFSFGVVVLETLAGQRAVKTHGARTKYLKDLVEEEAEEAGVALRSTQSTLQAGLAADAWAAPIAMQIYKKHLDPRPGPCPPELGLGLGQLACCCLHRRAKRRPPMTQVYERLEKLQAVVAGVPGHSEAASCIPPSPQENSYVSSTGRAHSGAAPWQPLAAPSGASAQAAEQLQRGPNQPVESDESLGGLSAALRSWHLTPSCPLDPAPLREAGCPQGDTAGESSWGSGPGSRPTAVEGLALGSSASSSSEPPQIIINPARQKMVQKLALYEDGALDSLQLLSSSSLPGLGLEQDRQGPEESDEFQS
reportedEndpoint: residual activity (%)
Report as a plain number; the unit % is understood.

residual activity measured on "Oc1ccc(-c2nc(-c3ccc(F)cc3)c(-c3ccncc3)[nH]2)cc1" = 123

residual activity measured on "O=C1Nc2cc(Br)ccc2/C1=C1/Nc2ccccc2/C1=N\O" = 103

residual activity measured on "Nc1n[nH]c2nnc(-c3c(-c4ccccc4)nn4ccccc34)cc12" = 105

residual activity measured on "O=C(Nc1ccc(Cl)cc1)c1ccccc1NCc1ccncc1" = 117

residual activity measured on "COc1cc2ncnc(Nc3ccc(F)c(Cl)c3)c2cc1OCCCN1CCOCC1" = 57.6

residual activity measured on CSc1nc(-c2ccc(F)cc2)c(-c2ccnc(NC(C)c3ccccc3)c2)[nH]1 (stereo unspecified) = 103

residual activity measured on "O=c1cc(-c2cccc3c2Sc2ccccc2S3)oc(N2CCOCC2)c1" = 103

residual activity measured on "Nc1nc(Nc2ccc(S(N)(=O)=O)cc2)nn1C(=O)c1c(F)cccc1F" = 89.8

residual activity measured on "CCN1/C(=C/C(C)=O)Sc2ccc(OC)cc21" = 114

residual activity measured on "CC(C)[C@H](CO)Nc1nc(Nc2cccc(Cl)c2)c2ncn(C(C)C)c2n1" = 109

residual activity measured on "COc1cc2nccc(Oc3ccc(NC(=S)NC(=O)c4ccccc4C)cc3)c2cc1OC" = 99.6
